- Target system: T1, HsLARP6(70-300) K196A (Homo sapiens, UniProt Q9BRS8 70-300, K196A)
- T1 sequence: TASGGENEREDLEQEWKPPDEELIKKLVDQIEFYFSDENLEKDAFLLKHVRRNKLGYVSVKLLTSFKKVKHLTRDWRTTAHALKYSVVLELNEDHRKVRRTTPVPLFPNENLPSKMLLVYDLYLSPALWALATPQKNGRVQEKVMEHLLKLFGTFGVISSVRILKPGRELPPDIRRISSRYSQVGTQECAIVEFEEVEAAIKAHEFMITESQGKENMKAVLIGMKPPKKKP
- Assay notes: ITC; ITC: 20 mM Tris pH 7.25, 100 mM KCl, 5 mM MgCl2, 1 mM DTT, 298 K; protein titrated into RNA
- Assay context: protein: recombinant; tags: N-terminal His6 (TEV-cleavable); stem-loop with internal bulge
Reported endpoint: Kd
I'd appreciate it if you included the unit after the number.

Look up Kd for this binder: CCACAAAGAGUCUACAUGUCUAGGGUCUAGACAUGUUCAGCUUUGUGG (structured_RNA) [48 nt RNA (collagen alpha1(I) 5' UTR SL)]
48 nM
